protocol-summary: Microsomal metabolic stability
Assay type: in vitro ADME
test-parameters: rat, rat liver microsomes, NADPH-generating system present
attribute-measured: half-life at 10 μM (h)
Number in h, nothing else.

Inquiry: Sample c1ccc(N2CCN(c3nc(N4CCCNCC4)nc(N4CCOCC4)n3)CC2)cc1 — what was its half-life at 10 μM?
Reply text: 7.7

---

protocol-summary: PBMC viability assay (72 h MTT)
Type: cell-based, human
test-parameters: human, peripheral blood mononuclear cells (PBMCs), PBMC, 0.0003 µM (printed 0.0003M), read-out: % cell viability
attribute-measured: viability at 72 h, 0.0003 µM (%)
Give just the number in %; leave the unit off.

Inquiry: // viability at 72 h, 0.0003 µM lookup, key: CN(C)C1CCN(C(=O)c2ccc(NC(=O)Nc3ccc(-c4nc(N5CCOCC5)nc(N5CCOCC5)n4)cc3)cc2)CC1
Reply text: 89

Every entry's value here was drawn from paper PMC9964390.
